molecular target: T1, Human SIRPαV1 (NP_542970.1), Extracellular Domain + His-Tag (human, UniProt P78324 31-373); assay: SPR, antibody captured on Protein A/G, ECD-His analyte, 1:1 fit
T1 construct: also called huSIRPαV1; hSIRPαV1; not shown: His-Tag
T1 sequence (P78324 other isoform, or with tags, fused parts or gaps): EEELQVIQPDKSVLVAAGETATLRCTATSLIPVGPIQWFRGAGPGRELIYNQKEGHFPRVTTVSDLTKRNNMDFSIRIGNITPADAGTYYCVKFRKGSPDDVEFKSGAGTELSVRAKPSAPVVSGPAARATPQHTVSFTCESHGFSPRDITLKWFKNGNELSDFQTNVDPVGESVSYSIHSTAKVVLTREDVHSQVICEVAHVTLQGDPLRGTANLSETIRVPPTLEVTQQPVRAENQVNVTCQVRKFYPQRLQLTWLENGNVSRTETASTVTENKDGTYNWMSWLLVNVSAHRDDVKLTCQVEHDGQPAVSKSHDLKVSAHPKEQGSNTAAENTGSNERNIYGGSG
property name: log10 koff (log10 of the value in s⁻¹)

>>> test_value("Antibody E17 (antibody, human IgG1, kappa, L234A L235A, V domains shown) VH: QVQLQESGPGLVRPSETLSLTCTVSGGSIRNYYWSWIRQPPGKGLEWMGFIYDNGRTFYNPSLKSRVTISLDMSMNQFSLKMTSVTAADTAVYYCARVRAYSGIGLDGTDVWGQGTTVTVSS VL: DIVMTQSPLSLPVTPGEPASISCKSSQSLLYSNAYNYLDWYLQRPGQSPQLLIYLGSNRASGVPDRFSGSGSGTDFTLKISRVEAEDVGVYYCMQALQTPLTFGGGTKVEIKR")
-3.02
>>> test_value("Antibody E16 (antibody, human IgG1, kappa, L234A L235A, V domains shown) VH: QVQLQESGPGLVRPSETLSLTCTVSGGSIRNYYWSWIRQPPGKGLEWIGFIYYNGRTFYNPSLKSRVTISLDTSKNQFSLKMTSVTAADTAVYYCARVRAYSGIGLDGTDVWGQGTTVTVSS VL: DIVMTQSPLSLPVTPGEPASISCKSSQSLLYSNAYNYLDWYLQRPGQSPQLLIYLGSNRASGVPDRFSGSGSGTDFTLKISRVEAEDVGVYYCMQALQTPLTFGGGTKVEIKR")
-2.97
>>> test_value("Antibody A5 (antibody, human IgG1, kappa, L234A L235A, V domains shown) VH: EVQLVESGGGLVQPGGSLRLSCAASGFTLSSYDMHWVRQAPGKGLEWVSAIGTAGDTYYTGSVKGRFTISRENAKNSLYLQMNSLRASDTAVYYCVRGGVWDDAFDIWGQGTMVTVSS VL: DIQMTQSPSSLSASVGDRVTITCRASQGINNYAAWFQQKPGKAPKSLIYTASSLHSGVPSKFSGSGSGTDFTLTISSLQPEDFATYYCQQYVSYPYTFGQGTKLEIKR")
-2.22
>>> test_value("Antibody A8 (antibody, human IgG1, kappa, L234A L235A, V domains shown) VH: EVQLVESGGGLVQPGGSLRLSCAASGFTLSSYDMHWVRQAPGKGLEWVSAIGTAGDTYYTGSVKGRFTISRENAKNSLYLQMNSLRAGDTAVYYCVRGGVWDDAFDIWGQGTMVTVSS VL: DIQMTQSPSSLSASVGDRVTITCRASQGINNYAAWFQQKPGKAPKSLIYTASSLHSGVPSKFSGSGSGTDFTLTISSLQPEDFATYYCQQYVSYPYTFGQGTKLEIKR")
-2.22
>>> test_value("Antibody A3 (antibody, human IgG1, kappa, L234A L235A, V domains shown) VH: EVQLVESGGGLVQPGGSLRLSCAASGFTLSSYDMHWVRQATGKGLEWVSAIGTAGDTYYTGSVKGRFTISRENAKNSLYLQMNSLRASDTAVYYCVRGGVWDDAFDIWGQGTMVTVSS VL: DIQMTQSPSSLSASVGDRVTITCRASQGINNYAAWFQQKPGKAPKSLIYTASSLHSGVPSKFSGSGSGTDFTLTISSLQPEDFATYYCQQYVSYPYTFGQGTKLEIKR")
-2.18
>>> test_value("Antibody E10 (antibody, human IgG1, kappa, L234A L235A, V domains shown) VH: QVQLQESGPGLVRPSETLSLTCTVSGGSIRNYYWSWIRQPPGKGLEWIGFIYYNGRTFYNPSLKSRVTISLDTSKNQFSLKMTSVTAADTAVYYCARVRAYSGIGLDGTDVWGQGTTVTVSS VL: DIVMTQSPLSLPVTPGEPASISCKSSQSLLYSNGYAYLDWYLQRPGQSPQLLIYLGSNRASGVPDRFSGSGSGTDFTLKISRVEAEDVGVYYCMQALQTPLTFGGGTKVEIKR")
-3.29
>>> test_value("Antibody A6 (antibody, human IgG1, kappa, L234A L235A, V domains shown) VH: EVQLVESGGGLVQPGGSLRLSCAASGFTLSSYDMHWVRQAPGKGLEWVSAIGTAGDTYYTGSVKGRFTISRENAKNSLYLQMNSLRAEDTAVYYCVRGGVWDDAFDIWGQGTMVTVSS VL: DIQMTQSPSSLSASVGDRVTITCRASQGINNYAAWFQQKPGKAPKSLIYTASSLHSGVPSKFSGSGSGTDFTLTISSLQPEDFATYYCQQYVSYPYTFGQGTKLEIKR")
-2.20
>>> test_value("Antibody E12 (antibody, human IgG1, kappa, L234A L235A, V domains shown) VH: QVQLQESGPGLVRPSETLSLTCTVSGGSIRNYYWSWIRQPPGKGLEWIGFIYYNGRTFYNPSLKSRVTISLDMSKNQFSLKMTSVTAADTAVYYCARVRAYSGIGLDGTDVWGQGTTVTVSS VL: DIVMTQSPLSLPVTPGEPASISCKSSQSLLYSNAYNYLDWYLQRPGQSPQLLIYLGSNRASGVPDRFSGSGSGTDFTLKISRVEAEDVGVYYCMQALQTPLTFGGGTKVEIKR")
-3.09
>>> test_value("Antibody A7 (antibody, human IgG1, kappa, L234A L235A, V domains shown) VH: EVQLVESGGGLVQPGGSLRLSCAASGFTLSSYDMHWVRQATGKGLEWVSAIGTAGDTYYTGSVKGRFTISRENAKNSLYLQMNSLRAGDTAVYYCVRGGVWDDAFDIWGQGTMVTVSS VL: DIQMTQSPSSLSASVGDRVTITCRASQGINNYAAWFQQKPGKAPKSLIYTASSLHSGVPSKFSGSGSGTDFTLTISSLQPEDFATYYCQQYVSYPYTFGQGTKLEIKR")
-2.17
>>> test_value("Antibody E15 (antibody, human IgG1, kappa, L234A L235A, V domains shown) VH: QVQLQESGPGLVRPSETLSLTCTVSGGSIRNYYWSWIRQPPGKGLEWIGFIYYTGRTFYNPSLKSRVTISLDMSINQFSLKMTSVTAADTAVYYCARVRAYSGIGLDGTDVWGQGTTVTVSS VL: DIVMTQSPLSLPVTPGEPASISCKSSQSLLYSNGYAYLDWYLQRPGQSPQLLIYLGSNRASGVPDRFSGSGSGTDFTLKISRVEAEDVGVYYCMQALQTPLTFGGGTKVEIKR")
-3.10
